- System: Saccharomyces cerevisiae;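 also: PSI is a weighted mean of sequencing reads over stability bins, variants kept only with over 10 reads, mCherry proximal and sfGFP distal, peptide attached via GGGS linker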
- Test protocol: protein stability index of tFT-peptide fusion (C-terminal peptide) (PSI (0-1 scale)); higher = more stable (slower turnover)
- Particulars: genetic background: cdc53-1; temperature: 37 C
Mark label 0 for protein stability index values under 0.6, and label 1 for everything at or above.

# Sequence text, Group label
measured = [
    ("EKTKRGLIQRVV", "label 1"),
    ("LLPFSLLDLLLC", "label 1"),
    ("LCFLVLLSLLLL", "label 0"),
    ("VSLIFCLFFLSC", "label 0"),
    ("WQGWFLSLCIWV", "label 0"),
]

Challenge: # check: protein stability index of "RLLFFVFLSSRF" is greater than or equal to 0.6
Response given: label 0
